# assay: background-corrected fluorescence of 3'-dye-labeled ssDNA relative to brightest sequence (3'-GCGCG) (fraction); higher = brighter dye fluorescence (less quenching)
# protocol-conditions: dye: Cy3 (3' terminal)
Use condition met when the recorded background-corrected fluorescence is no lower than 0.6; use condition not met when it is lower.

These solved cases illustrate the format of a correct answer.
| sequence-entry | class |
| --- | --- |
| TTTTTTGAGCAGCAGCAGCATTTTTTTTTTTTTTTCTTTT | condition not met |
| TTTTTTGCTCAGCAGCATGATTTTTTTTTTTTTTTAGTTC [CTTGA] | condition not met |
| TTTTTTGCTGATGATCATCATTTTTTTTTTTTTTTACCGG [GGCCA] | condition met |
| TTTTTGCATCATGCGCATGATTTTTTTTTTTTTTTTGATC [CTAGT] | condition not met |
| TTTTTTGCTCATGATCATCATTTTTTTTTTTTTTTAGCGG [GGCGA] | condition met |

Check the entry TTTTTTGATGCTGCTCATGATTTTTTTTTTTTTTTCAAGC [CGAAC] : does background-corrected fluorescence equal or exceed 0.6?
condition not met

Does the sequence TTTTTTCAGCATGATCATGCTTTTTTTTTTTTTTTGTCGA [AGCTG] have recorded background-corrected fluorescence that is 0.6 or more?
condition met

Entry TTTTTTGATCAGCATCATCATTTTTTTTTTTTTTTCGTGG [GGTGC] : is its background-corrected fluorescence no less than 0.6?
condition met

Entry TTTTTTGCGCAGCATGCTCATTTTTTTTTTTTTTTATTAG [GATTA] : is its background-corrected fluorescence no less than 0.6?
condition not met

* * *

Reported background-corrected fluorescence is given for each of the following sequences.
# assay: background-corrected fluorescence of 3'-dye-labeled ssDNA relative to brightest sequence (3'-GCGCG) (fraction); higher = brighter dye fluorescence (less quenching)
# protocol-conditions: dye: Cy3 (3' terminal)
# print the numeric value only

| sequence-entry | background-corrected fluorescence |
| --- | --- |
| TTTTTTGCTCAGCATGCTCATTTTTTTTTTTTTTTAGTAG [GATGA] | 0.605 |
| TTTTTGCATCATGCTCATGATTTTTTTTTTTTTTTTGAGC [CGAGT] | 0.556 |
| TTTTTGCATGCTGCGCAGCATTTTTTTTTTTTTTTTAATT | 0.549 |

The value of background-corrected fluorescence measured for the sequence TTTTTTCATGCTGATGATGATTTTTTTTTTTTTTTGACCC [CCCAG] turned out to be 0.387

// recorded background-corrected fluorescence for TTTTTTGATGCGCATGAGCATTTTTTTTTTTTTTTCATCT [TCTAC] : 0.48

Entry TTTTTTGCGCAGCAGCATGCTTTTTTTTTTTTTTTATTTA ; background-corrected fluorescence = 0.545

* * *

# assay: background-corrected fluorescence of 3'-dye-labeled ssDNA relative to brightest sequence (3'-GCGCG) (fraction); higher = brighter dye fluorescence (less quenching)
# protocol-conditions: dye: Cy5 (3' terminal)
Binary classification by background-corrected fluorescence, with 0.4 as an inclusive lower bound for true; all other cases are false.

| sequence-entry | class |
| --- | --- |
| TTTTTTCATGCTGCTGCTGATTTTTTTTTTTTTTTGAAAC [CAAAG] | false |

hey, is background-corrected fluorescence for this one >= 0.4? TTTTTTCAGCATCATGATGCTTTTTTTTTTTTTTTGTGCA [ACGTG]
true

Given the entry TTTTTGCATCATGAGCATGATTTTTTTTTTTTTTTTGCTC [CTCGT] , answer whether its background-corrected fluorescence meets or surpasses 0.4.
false

Reported background-corrected fluorescence reaches at least 0.4 for TTTTTTGAGCAGCATCATGCTTTTTTTTTTTTTTTCTTGA [AGTTC] ?
true

Dear colleague, could you confirm whether TTTTTGCATGCTGCTGCGCATTTTTTTTTTTTTTTTAAAT has background-corrected fluorescence at or above 0.4?
true

Check this sequence for background-corrected fluorescence at or above 0.4: TTTTTTGCTGCTGCTGATCATTTTTTTTTTTTTTTAAACG [GCAAA]
true

Quick check: does TTTTTGCATCATCATCATGATTTTTTTTTTTTTTTTGGGC [CGGGT] have background-corrected fluorescence greater than or equal to 0.4?
true

Threshold query (background-corrected fluorescence >= 0.4) on TTTTTTCATGATGATGCTGCTTTTTTTTTTTTTTTGCCAA [AACCG]
true
